Where do the numbers come from? From paper PMC10247784.

Kindly supply the reported RLU values for the records listed here.
TGT: human TAS2R1 (Homo sapiens)
Construct: expressed in transfected cells; host or cells: HEK293T-Gα16gust44
Sequence (Q9NYW7 1-299): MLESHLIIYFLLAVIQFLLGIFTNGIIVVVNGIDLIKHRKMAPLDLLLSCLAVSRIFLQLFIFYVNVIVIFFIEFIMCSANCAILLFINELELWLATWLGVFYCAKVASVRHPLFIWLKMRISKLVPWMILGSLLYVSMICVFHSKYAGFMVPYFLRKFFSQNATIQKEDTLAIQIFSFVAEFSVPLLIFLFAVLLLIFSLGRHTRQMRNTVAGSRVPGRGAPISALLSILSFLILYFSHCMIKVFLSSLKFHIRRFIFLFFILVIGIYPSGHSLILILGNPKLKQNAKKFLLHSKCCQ
PROTOCOL_TEXT: Calcium imaging assay (FLIPR), HEK293T-Gα16gust44 cells transfected with human TAS2R1
Type: cell-based
STATED_CONDITIONS: Time 50.781 s
Unit RLU implied. Number only.

Tell me its RLU given C[C@H](CCC(=O)NCCS(=O)(=O)O)[C@H]1CC[C@H]2[C@@H]3[C@H](O)C[C@@H]4C[C@H](O)CC[C@]4(C)[C@H]3C[C@H](O)[C@]12C as the entry. 379.282

Tell me its RLU given C[C@H](CCC(=O)O)[C@H]1CC[C@H]2[C@@H]3CC[C@@H]4C[C@H](O)CC[C@]4(C)[C@H]3C[C@H](O)[C@]12C as the entry. 385.526

Tell me its RLU given C[C@H](CCC(=O)NCCS(=O)(=O)O)[C@H]1CC[C@H]2[C@@H]3CC[C@@H]4C[C@H](O)CC[C@]4(C)[C@H]3CC[C@]12C as the entry. 624.238

Tell me its RLU given C[C@H](CCC(=O)NCC(=O)O)[C@H]1CC[C@H]2[C@@H]3[C@H](O)C[C@@H]4C[C@H](O)CC[C@]4(C)[C@H]3C[C@H](O)[C@]12C as the entry. 587.34
